// provenance: BindingDB's records for patent US20250034135

# systemTested: Isoform Bcl-X(L) of Bcl-2-like protein 1 (Bcl-xL) (Homo sapiens)
# Sequence (Q07817 whole entry G70A, canonical isoform): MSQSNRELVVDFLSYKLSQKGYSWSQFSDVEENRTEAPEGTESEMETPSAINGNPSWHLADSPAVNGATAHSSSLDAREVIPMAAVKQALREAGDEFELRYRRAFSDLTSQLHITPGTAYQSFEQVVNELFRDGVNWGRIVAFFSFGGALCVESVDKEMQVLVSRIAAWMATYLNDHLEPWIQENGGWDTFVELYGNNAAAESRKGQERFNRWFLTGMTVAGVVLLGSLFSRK
# assayProtocol: BCL-XL Enzyme Molecular Level Activity Test
pIC50: −log10 of the molar value.
This listing pairs compounds with measured pIC50.

Examples from the recorded data:
- compound: "COc1ccccc1CN1CCN(C2CC3(CCN(c4cc(Oc5cnc6[nH]ccc6c5)c(C(=O)NS(=O)(=O)c5ccc(NCC6(F)CCOCC6)c([N+](=O)[O-])c5)cc4F)CC3)C2)[C@H](c2ccccc2C(C)C)C1"
  pIC50: "< 6.30"
- compound: "CC(C)c1ccccc1[C@@H]1CN(Cc2cnn(C)c2)CCN1C1CC2(CCN(c3cc(Oc4cnc5[nH]ccc5c4)c(C(=O)NS(=O)(=O)c4ccc(NC[C@H]5CC[C@](C)(O)CC5)c([N+](=O)[O-])c4)cc3F)CC2)C1"
  pIC50: "< 6.30"
- compound: "CC(C)c1ccccc1[C@@H]1CN(Cc2ccccc2F)CCN1C1CC2(CCN(c3cc(Oc4cnc5[nH]ccc5c4)c(C(=O)NS(=O)(=O)c4ccc(NCC5(F)CCOCC5)c([N+](=O)[O-])c4)cc3F)CC2)C1"
  pIC50: "< 6.30"

Param item = COc1ccc(CN2CCN(C3CC4(C3)CN(c3cc(Oc5cnc6[nH]ccc6c5)c(C(=O)NS(=O)(=O)c5ccc(NCC6(F)CCN(C7COC7)CC6)c([N+](=O)[O-])c5)cc3F)C4)C(c3ccccc3C(C)C)C2)cc1 (centres undefined) ; retrieve measured pIC50.
< 6.00
